The following molecules are shown together with reported L-glutamate CRC HillSlope values.
biological target: human NMDA receptor GluN1-GluN2A (Homo sapiens, UniProt Q05586+Q12879); construct: expressed in transfected cells; host or cells: CHO; test: FLIPR calcium assay, test item effect on L-glutamate CRC, GluN1-GluN2A-CHO; assay type: cell-based; conditions: with test item 49 nM
Sequence (Q12879 23-1464, other chains not shown): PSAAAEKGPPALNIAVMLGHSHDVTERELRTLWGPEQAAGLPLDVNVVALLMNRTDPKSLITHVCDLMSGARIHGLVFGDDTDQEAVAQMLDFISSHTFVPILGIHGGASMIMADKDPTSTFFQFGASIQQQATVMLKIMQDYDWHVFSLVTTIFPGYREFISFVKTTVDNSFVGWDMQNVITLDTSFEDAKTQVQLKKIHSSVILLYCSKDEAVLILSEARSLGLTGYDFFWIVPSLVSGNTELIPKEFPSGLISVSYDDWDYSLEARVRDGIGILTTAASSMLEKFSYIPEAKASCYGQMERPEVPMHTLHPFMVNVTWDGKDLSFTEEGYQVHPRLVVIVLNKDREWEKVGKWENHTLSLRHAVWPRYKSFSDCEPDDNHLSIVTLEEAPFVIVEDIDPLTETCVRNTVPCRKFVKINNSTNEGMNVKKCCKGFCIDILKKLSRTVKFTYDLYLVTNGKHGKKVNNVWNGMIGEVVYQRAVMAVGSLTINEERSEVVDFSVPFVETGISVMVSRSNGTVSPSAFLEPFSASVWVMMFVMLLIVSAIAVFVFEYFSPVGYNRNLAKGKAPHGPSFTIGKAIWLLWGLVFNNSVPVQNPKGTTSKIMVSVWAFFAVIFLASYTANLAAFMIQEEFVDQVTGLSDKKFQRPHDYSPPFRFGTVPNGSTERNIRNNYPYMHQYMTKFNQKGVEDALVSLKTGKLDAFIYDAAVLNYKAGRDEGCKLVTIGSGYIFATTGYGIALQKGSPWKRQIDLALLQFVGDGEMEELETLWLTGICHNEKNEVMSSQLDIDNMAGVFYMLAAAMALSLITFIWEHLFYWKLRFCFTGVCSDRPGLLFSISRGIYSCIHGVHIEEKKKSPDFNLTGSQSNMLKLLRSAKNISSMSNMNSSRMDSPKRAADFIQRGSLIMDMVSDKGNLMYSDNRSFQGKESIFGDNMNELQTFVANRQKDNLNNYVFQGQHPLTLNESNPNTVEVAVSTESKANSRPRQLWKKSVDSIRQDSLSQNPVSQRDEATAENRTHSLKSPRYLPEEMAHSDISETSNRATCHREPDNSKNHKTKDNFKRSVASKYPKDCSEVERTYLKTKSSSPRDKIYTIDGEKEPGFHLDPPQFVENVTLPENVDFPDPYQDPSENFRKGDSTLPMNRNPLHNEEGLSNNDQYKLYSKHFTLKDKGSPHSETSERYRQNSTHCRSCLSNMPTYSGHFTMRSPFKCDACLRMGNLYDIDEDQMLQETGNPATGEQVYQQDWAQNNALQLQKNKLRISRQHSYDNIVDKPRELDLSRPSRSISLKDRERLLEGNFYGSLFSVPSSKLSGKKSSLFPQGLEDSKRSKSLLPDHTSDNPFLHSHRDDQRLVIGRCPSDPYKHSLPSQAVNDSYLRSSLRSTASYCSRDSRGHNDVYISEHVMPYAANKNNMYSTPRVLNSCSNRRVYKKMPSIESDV
Where a name gives a salt, the structure may show the parent alone.
Lab note: jot the number down without any unit.

COc1ccc2c(c1)[C@]13CCCC[C@@H]1[C@H](C2)N(C)CC3 [Dextromethorphan, hydrobromide monohydrate]
1.0
CNC1(c2ccccc2Cl)CCCCC1=O (racemic) [(±)-Ketamine, (±)-ketamine hydrochloride]
1.2
CCC(=O)C(C[C@H](C)N(C)C)(c1ccccc1)c1ccccc1 [Dextromethadone, dextromethadone]
1.0

Prompt: # input molecule: CC12CC3CC(C)(C1)CC(N)(C3)C2 [Memantine, memantine hydrochloride] ; wanted: its L-glutamate CRC HillSlope
Completion: 1.1

* * *

target: human NMDA receptor GluN1-GluN2C (Homo sapiens, UniProt Q05586+Q14957); construct: expressed in transfected cells; host or cells: CHO; test: FLIPR calcium assay, test item effect on L-glutamate CRC, GluN1-GluN2C-CHO; assay type: cell-based; conditions: with test item 781 nM
Sequence (Q14957 20-1233, other chains not shown): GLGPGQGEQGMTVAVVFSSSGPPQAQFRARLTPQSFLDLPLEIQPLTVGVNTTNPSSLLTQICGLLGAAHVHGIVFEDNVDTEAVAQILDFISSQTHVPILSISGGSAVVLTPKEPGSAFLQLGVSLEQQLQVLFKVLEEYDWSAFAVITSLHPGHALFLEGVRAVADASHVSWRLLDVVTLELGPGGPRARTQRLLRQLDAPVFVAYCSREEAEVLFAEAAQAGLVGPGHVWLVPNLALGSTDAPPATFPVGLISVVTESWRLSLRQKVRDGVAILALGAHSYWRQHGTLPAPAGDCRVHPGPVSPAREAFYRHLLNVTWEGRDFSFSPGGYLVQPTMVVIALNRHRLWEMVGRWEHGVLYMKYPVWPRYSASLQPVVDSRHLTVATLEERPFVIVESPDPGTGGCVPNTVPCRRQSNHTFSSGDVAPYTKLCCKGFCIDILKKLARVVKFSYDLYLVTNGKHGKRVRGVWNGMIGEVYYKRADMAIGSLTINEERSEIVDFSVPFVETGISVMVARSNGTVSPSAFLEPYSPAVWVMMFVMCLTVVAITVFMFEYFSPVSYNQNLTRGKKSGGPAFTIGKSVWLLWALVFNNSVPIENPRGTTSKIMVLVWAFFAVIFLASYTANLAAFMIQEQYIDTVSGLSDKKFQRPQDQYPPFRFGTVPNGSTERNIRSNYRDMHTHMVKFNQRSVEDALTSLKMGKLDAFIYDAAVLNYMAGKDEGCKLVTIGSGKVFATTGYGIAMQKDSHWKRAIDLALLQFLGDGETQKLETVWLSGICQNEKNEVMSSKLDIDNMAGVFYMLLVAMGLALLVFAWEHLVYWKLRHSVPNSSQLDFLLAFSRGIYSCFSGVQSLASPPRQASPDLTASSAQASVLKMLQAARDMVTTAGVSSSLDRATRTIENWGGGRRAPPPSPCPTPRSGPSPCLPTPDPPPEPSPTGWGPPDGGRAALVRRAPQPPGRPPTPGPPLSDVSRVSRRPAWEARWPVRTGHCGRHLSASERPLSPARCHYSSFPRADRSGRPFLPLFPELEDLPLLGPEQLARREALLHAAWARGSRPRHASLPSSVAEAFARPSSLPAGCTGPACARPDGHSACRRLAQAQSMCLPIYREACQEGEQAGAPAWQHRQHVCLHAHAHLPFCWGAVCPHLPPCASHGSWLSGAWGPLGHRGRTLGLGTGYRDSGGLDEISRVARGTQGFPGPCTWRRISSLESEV
Counter-ions that a name gives are not always drawn.
recorded_endpoint: L-glutamate CRC HillSlope
Lab note: jot the number down without any unit.

Known results for compounds:
CC12CC3CC(C)(C1)CC(N)(C3)C2 [Memantine, memantine hydrochloride]
1.4
CCC(=O)C(C[C@H](C)N(C)C)(c1ccccc1)c1ccccc1 [Dextromethadone, dextromethadone]
2.2
CNC1(c2ccccc2Cl)CCCCC1=O (racemic) [(±)-Ketamine, (±)-ketamine hydrochloride]
1.3

Then there is this compound:
Prompt: # input compound: COc1ccc2c(c1)[C@]13CCCC[C@@H]1[C@H](C2)N(C)CC3 [Dextromethorphan, hydrobromide monohydrate] ; wanted: its L-glutamate CRC HillSlope
Completion: 1.6

* * *

target: human NMDA receptor GluN1-GluN2D (Homo sapiens, UniProt O15399+Q05586); construct: expressed in transfected cells; host or cells: CHO; experiment: FLIPR calcium assay, test item effect on L-glutamate CRC, GluN1-GluN2D-CHO; type: cell-based; details: with test item 3.1 μM
Sequence (O15399 28-1336, other chains not shown): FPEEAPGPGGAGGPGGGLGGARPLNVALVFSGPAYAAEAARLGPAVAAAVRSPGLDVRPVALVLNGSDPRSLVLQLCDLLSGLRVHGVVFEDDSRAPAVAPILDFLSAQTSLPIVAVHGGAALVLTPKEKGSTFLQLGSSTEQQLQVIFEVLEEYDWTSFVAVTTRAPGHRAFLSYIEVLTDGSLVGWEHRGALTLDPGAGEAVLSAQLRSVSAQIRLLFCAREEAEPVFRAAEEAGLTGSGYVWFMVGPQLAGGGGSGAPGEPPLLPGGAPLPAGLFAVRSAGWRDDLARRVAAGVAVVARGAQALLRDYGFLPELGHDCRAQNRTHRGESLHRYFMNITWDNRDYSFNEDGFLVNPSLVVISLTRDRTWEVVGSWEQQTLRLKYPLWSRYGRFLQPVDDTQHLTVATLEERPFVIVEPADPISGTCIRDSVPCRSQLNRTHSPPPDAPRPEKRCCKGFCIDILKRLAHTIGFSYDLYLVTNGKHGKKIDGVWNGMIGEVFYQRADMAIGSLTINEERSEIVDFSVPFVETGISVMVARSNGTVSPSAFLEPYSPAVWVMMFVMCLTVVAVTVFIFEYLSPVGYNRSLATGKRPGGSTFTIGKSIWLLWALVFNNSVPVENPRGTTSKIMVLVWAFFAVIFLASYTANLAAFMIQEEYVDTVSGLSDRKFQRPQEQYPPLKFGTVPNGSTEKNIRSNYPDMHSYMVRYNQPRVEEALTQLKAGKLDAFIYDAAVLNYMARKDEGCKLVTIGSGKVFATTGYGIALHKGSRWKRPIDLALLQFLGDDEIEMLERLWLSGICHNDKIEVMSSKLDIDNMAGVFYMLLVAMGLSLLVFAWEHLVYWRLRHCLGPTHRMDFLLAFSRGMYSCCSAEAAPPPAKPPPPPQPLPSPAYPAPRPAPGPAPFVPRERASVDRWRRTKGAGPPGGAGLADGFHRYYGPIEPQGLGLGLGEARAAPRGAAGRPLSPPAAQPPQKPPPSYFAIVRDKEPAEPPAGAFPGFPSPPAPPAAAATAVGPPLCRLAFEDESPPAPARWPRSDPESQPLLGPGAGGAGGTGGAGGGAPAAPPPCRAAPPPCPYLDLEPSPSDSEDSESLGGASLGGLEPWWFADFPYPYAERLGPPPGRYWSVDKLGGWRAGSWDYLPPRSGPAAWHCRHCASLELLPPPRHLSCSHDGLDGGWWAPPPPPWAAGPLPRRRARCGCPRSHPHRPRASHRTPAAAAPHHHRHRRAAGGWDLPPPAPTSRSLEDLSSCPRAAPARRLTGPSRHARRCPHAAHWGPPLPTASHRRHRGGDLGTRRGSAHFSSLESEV
Where a name gives a salt, the structure may show the parent alone.
The following compounds are shown together with reported L-glutamate CRC LogEC50 values.
Lab note: jot the number down without any unit.

Known results for compounds:
CCC(=O)C(C[C@H](C)N(C)C)(c1ccccc1)c1ccccc1 [Dextromethadone, dextromethadone]
−7.4
CC12CC3CC(C)(C1)CC(N)(C3)C2 [Memantine, memantine hydrochloride]
−7.1
COc1ccc2c(c1)[C@]13CCCC[C@@H]1[C@H](C2)N(C)CC3 [Dextromethorphan, hydrobromide monohydrate]
−7.3

Then there is this compound:
Prompt: # input compound: CNC1(c2ccccc2Cl)CCCCC1=O (racemic) [(±)-Ketamine, (±)-ketamine hydrochloride] ; wanted: its L-glutamate CRC LogEC50
Completion: −7.1

* * *

Target: human NMDA receptor GluN1-GluN2C (Homo sapiens, UniProt Q05586+Q14957)
Construct: expressed in transfected cells; host or cells: CHO
Test: FLIPR calcium assay, test item effect on L-glutamate CRC, GluN1-GluN2C-CHO
Format: cell-based
Conditions: with test item 49 nM
Description: FLIPR determination of intracellular calcium level was used as a read-out for NMDAR activation. 400× compound plate was stored at −20° C. until FLIPR experimental day. 4× compound plate was generated from 400× compound plate by addition of up to 30 μl/well of compound buffer on FLIPR experimental day. A FLIPR system was used to monitor intracellular calcium level in NMDAR cell lines, pre-loaded for 1 hour with Fluo-4, and then washed with assay buffer. […]
Structures can show the parent of a compound that is named as a salt.
recorded_endpoint: L-glutamate CRC HillSlope
Lab note: jot the number down without any unit.

Prompt: # input compound: CNC1(c2ccccc2Cl)CCCCC1=O (racemic) [(±)-Ketamine, (±)-ketamine hydrochloride] ; wanted: its L-glutamate CRC HillSlope
Completion: 1.5

Prompt: What about this compound? COc1ccc2c(c1)[C@]13CCCC[C@@H]1[C@H](C2)N(C)CC3 [Dextromethorphan, hydrobromide monohydrate]
Completion: 1.3

Prompt: What about this compound? CCC(=O)C(C[C@H](C)N(C)C)(c1ccccc1)c1ccccc1 [Dextromethadone, dextromethadone]
Completion: 1.3

Prompt: What about this compound? CC12CC3CC(C)(C1)CC(N)(C3)C2 [Memantine, memantine hydrochloride]
Completion: 1.4
